meta.source: ChEMBL document CHEMBL1221385

molecular target: Gamma-secretase; assay: Inhibition of gamma secretase-mediated amyloid beta42 production in HEK293 cells
pIC50: −log10 of the molar value.
recorded.endpoint: pIC50

# compound, recorded.endpoint, recorded.measurement
measured = [
    ("COc1cc(/C=C2\\N=C(N)N([C@H](C)c3ccc(F)cc3)C2=O)ccc1-n1cnc(C)c1", "pIC50", 7.03),
    ("COc1cc(/C=C2\\N=C(NCCCO)N([C@H](C)c3ccc(F)cc3)C2=O)ccc1-n1cnc(C)c1", "pIC50", 6.95),
    ("COc1cc(/C=C2\\N=C(NCCCO)N([C@@H](C)c3ccc(F)cc3)C2=O)ccc1-n1cnc(C)c1", "pIC50", 6.79),
    ("COc1cc(/C=C2\\N=C(N)N(Cc3ccc(F)cc3)C2=O)ccc1-n1cnc(C)c1", "pIC50", 6.84),
]

A = CCNC1=N/C(=C\c2ccc(-n3cnc(C)c3)c(OC)c2)C(=O)N1[C@@H](C)c1ccc(F)cc1
B = COc1cc(/C=C2\NC(=O)N([C@H](C)c3ccc(F)cc3)C2=O)ccc1-n1cnc(C)c1
Qu. # argmax over pIC50 for candidates A and B Pick one; state its label.
Ans. A
(A: 6.66, B: 5.46)

A = COc1cc(/C=C2\N=C(NCC3CC3)N([C@H](C)c3ccc(F)cc3)C2=O)ccc1-n1cnc(C)c1
B = CCNC1=N/C(=C\c2ccc(-n3cnc(C)c3)c(OC)c2)C(=O)N1[C@H](C)c1ccc(F)cc1
Qu. Of A and B , whose reported pIC50 is the larger number? Please indicate the selected item by its label.
Ans. B

P = CCNC1=N/C(=C\c2ccc(-n3cnc(C)c3)c(OC)c2)C(=O)N1Cc1ccc(F)cc1
Q = COc1cc(/C=C2\NC(=O)N([C@@H](C)c3ccc(F)cc3)C2=O)ccc1-n1cnc(C)c1
Qu. Of the two listed items, P and Q , which carries the larger pIC50 figure? // caller expects the label of the chosen entry
Ans. P

* * *

Below is a list of entries, each paired with its recorded Kp at 6 h value.
experiment: Selectivity ratio of drug level in brain to plasma in rat at 10 mg/kg, po after 6 hrs; format: ADME, organism-based; design: dose 10 mg/kg, route oral; conditions: read-out: BPR
Just the number, please, no unit after it.

# compound, Kp at 6 h
measured = [
    ("CCCCNC1=N/C(=C\\c2ccc(-n3cnc(C)c3)c(OC)c2)C(=O)N1Cc1ccc(F)cc1", 0.7),
    ("CCNC1=N/C(=C\\c2ccc(-n3cnc(C)c3)c(OC)c2)C(=O)N1[C@H](C)c1ccc(F)cc1", 1.3),
]

# ---- query compound ----
Qu. Bench note: what Kp at 6 h did CCN1CCCC(c2ccc(F)cc2)N2C(=O)/C(=C/c3ccc(-n4cnc(C)c4)c(OC)c3)N=C12 (single isomer, unassigned; (-)) show?
Ans. 0.3

* * *

assay: Drug level in rat brain at 10 mg/kg, po after 6 hrs; assay type: ADME, organism-based; set-up: dose 10 mg/kg, route oral; settings: read-out: Drug uptake
recorded.endpoint: concentration at 6 h (ng/g)

# molecule, scale.unit, concentration at 6 h
data = [
    ("CCCCNC1=N/C(=C\\c2ccc(-n3cnc(C)c3)c(OC)c2)C(=O)N1Cc1ccc(F)cc1", "ng/g", 449),
]

A = CCN1CCCC(c2ccc(F)cc2)N2C(=O)/C(=C/c3ccc(-n4cnc(C)c4)c(OC)c3)N=C12 (single isomer, unassigned; (-))
B = CCNC1=N/C(=C\c2ccc(-n3cnc(C)c3)c(OC)c2)C(=O)N1[C@H](C)c1ccc(F)cc1
Qu. Which of these two has the smaller recorded concentration at 6 h: A or B ? State your choice using its label.
Ans. A

* * *

assay: Selectivity ratio of total amyloid beta to amyloid beta 42
recorded.endpoint: Ratio

Previously resolved entries follow.
# compound, recorded.measurement
measured = [
    ("CCCCNC1=N/C(=C\\c2ccc(-n3cnc(C)c3)c(OC)c2)C(=O)N1[C@H](C)c1ccc(F)cc1", 42),
    ("COc1cc(/C=C2\\N=C(N3CCCC3)N([C@@H](C)c3ccc(F)cc3)C2=O)ccc1-n1cnc(C)c1", 32),
    ("COCCNC1=N/C(=C\\c2ccc(-n3cnc(C)c3)c(OC)c2)C(=O)N1[C@@H](C)c1ccc(F)cc1", 66),
    ("COc1cc(/C=C2\\N=C(NCC3CC3)N([C@@H](C)c3ccc(F)cc3)C2=O)ccc1-n1cnc(C)c1", 71),
    ("COc1cc(/C=C2\\N=C(NC3CC3)N([C@@H](C)c3ccc(F)cc3)C2=O)ccc1-n1cnc(C)c1", 136),
]

a = COc1cc(/C=C2\N=C(N)N([C@H](CO)c3ccc(F)cc3)C2=O)ccc1-n1cnc(C)c1
b = CCCCNC1=N/C(=C\c2ccc(-n3cnc(C)c3)c(OC)c2)C(=O)N1[C@@H](C)c1ccc(F)cc1
c = COc1cc(/C=C2\N=C(N3CCCCC3)N([C@@H](C)c3ccc(F)cc3)C2=O)ccc1-n1cnc(C)c1
d = CCN1CCCC(c2ccc(F)cc2)N2C(=O)/C(=C/c3ccc(-n4cnc(C)c4)c(OC)c3)N=C12 (single isomer, unassigned; (-))
e = COc1cc(/C=C2\N=C3NCCCC(c4ccc(F)cc4)N3C2=O)ccc1-n1cnc(C)c1 (racemic)
Qu. rank_up(items): orders items by reported Ratio in ascending numerical order. Answer by writing out the labels in the requested order.
Ans. c, e, b, a, d

P = CCNC1=N/C(=C\c2ccc(-n3cnc(C)c3)c(OC)c2)C(=O)N1Cc1ccc(F)cc1
Q = COC1=N/C(=C\c2ccc(-n3cnc(C)c3)c(OC)c2)C(=O)N1[C@@H](C)c1ccc(F)cc1
R = COc1cc(/C=C2\N=C(N)N([C@H](C)c3ccc(F)cc3)C2=O)ccc1-n1cnc(C)c1
S = CCNC1=N/C(=C\c2ccc(-n3cnc(C)c3)c(OC)c2)C(=O)N1[C@H](CO)c1ccc(F)cc1
Qu. Parameters: sort_field (Ratio), sort_dir (desc). To answer, write out the labels according to the requested order.
Ans. S, P, R, Q

1 = COc1cc(/C=C2\NC(=O)N([C@@H](C)c3ccc(F)cc3)C2=O)ccc1-n1cnc(C)c1
2 = CNC1=N/C(=C\c2ccc(-n3cnc(C)c3)c(OC)c2)C(=O)N1[C@@H](C)c1ccc(F)cc1
3 = COc1cc(/C=C2\N=C(NCC3CC3)N([C@H](C)c3ccc(F)cc3)C2=O)ccc1-n1cnc(C)c1
Qu. Arrange the 3 entries by Ratio so the values rise. Respond with the label ranking, as requested.
Ans. 2, 3, 1

* * *

test: Selectivity ratio of total amyloid beta to amyloid beta 42
recorded.endpoint: Ratio

Previously resolved entries follow.
# compound, recorded.endpoint, recorded.measurement
data = [
    ("CCNC1=N/C(=C\\c2ccc(-n3cnc(C)c3)c(OC)c2)C(=O)N1[C@@H](C)c1ccc(F)cc1", "Ratio", 97),
    ("COc1cc(/C=C2\\N=C(NCCCO)N([C@@H](C)c3ccc(F)cc3)C2=O)ccc1-n1cnc(C)c1", "Ratio", 141),
    ("CCNC1=N/C(=C\\c2ccc(-n3cnc(C)c3)c(OC)c2)C(=O)N1[C@H](C)c1ccc(F)cc1", "Ratio", 159),
]

1 = COc1cc(/C=C2\N=C3NCC(c4ccc(F)cc4)N3C2=O)ccc1-n1cnc(C)c1 (racemic)
2 = COc1cc(/C=C2\N=C(N)N([C@@H](C)c3ccc(F)cc3)C2=O)ccc1-n1cnc(C)c1
Qu. # query: argmin of Ratio over 1 and 2 Label of pick, please.
Ans. 2
(2: 55, 1: 117)

* * *

molecular target: Gamma-secretase; experiment: Inhibition of gamma secretase-mediated amyloid beta42 production in HEK293 cells
pIC50: −log10 of the molar value.
recorded.endpoint: pIC50

Examples with their reported pIC50 follow.
# compound, pIC50
records = [
    ("CCNC1=N/C(=C\\c2ccc(-n3cnc(C)c3)c(OC)c2)C(=O)N1[C@H](CO)c1ccc(F)cc1", 7.04),
    ("CNC1=N/C(=C\\c2ccc(-n3cnc(C)c3)c(OC)c2)C(=O)N1[C@@H](C)c1ccc(F)cc1", 6.39),
    ("COC1=N/C(=C\\c2ccc(-n3cnc(C)c3)c(OC)c2)C(=O)N1[C@@H](C)c1ccc(F)cc1", 6.06),
]

A = COCCCNC1=N/C(=C\c2ccc(-n3cnc(C)c3)c(OC)c2)C(=O)N1[C@@H](C)c1ccc(F)cc1
B = CCNC1=N/C(=C\c2ccc(-n3cnc(C)c3)c(OC)c2)C(=O)N1[C@H](CCO)c1ccc(F)cc1
Qu. Please tell me which of the two, A or B , has the higher reported pIC50 value. Kindly give the label for the entry you pick.
Ans. B
(B: 6.77, A: 6.54)

* * *

molecular target: Gamma-secretase; assay: Inhibition of gamma secretase-mediated amyloid beta42 production in HEK293 cells
recorded.endpoint: IC50 (nM)

a = COc1cc(/C=C2\N=C(N)N([C@@H](C)c3ccc(F)cc3)C2=O)ccc1-n1cnc(C)c1
b = CCN1CCCC(c2ccc(F)cc2)N2C(=O)/C(=C/c3ccc(-n4cnc(C)c4)c(OC)c3)N=C12 (racemic)
c = COc1cc(/C=C2\N=C(N3CCCC3)N([C@@H](C)c3ccc(F)cc3)C2=O)ccc1-n1cnc(C)c1
d = COc1cc(/C=c2/c(=O)n([C@@H](C)c3ccc(F)cc3)c3n2CCCN=3)ccc1-n1cnc(C)c1
e = COc1cc(/C=C2\N=C(NCCO)N([C@@H](C)c3ccc(F)cc3)C2=O)ccc1-n1cnc(C)c1
Qu. Consider the compounds listed above. Rank them by IC50 in ascending numerical order. To answer, write out the labels according to the requested order.
Ans. b, e, a, c, d

a = COCCNC1=N/C(=C\c2ccc(-n3cnc(C)c3)c(OC)c2)C(=O)N1[C@@H](C)c1ccc(F)cc1
b = COc1cc(/C=C2\N=C3NCC(c4ccc(F)cc4)N3C2=O)ccc1-n1cnc(C)c1 (racemic)
c = CCCCNC1=N/C(=C\c2ccc(-n3cnc(C)c3)c(OC)c2)C(=O)N1Cc1ccc(F)cc1
Qu. Hey, quick one: sort these by IC50, largest value first please. Record the ranking as a list of labels in the requested order.
Ans. a, b, c
(a: 301 nM, b: 135 nM, c: 85 nM)
